# measurement-target: PRMT5-MEP50 enzyme (Homo sapiens, UniProt O14744)
# Construct: One virus expresses full length human PRMT5 with Flag-tag at N-terminus; Flag (N); purchased Charles River (Argenta); host or cells: insect cells (Sf9), baculovirus co-infection
# Sequence (O14744 whole entry): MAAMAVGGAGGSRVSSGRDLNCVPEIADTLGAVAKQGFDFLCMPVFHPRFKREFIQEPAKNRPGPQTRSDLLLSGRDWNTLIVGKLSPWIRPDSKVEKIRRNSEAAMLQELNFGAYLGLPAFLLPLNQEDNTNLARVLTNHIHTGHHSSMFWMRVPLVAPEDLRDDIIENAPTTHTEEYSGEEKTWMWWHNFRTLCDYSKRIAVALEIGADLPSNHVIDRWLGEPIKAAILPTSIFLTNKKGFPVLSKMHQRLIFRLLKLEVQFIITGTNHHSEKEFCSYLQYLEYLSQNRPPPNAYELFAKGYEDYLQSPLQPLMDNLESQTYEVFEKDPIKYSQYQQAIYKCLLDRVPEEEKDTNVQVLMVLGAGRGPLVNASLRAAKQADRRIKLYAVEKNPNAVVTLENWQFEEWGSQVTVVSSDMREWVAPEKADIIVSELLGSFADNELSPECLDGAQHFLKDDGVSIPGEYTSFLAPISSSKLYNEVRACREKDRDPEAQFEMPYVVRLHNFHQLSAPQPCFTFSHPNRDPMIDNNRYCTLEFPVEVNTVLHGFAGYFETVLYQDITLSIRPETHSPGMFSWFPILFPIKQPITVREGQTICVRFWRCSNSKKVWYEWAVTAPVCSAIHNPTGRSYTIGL
# Sequence (Q9BQA1 whole entry partner): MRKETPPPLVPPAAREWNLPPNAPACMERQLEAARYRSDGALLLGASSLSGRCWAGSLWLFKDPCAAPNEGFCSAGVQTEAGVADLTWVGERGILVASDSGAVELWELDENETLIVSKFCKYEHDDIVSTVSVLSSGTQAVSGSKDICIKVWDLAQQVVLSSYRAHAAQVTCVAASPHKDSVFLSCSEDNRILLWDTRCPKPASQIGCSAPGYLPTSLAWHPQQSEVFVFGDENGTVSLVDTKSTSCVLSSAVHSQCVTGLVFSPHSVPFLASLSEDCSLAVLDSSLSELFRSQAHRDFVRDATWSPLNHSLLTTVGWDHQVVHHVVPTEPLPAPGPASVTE
# measurement-notes: In vitro assay 1b: high throughput mass spectrometer assay of SAH formation, 1.25 nM enzyme, 120 min
# Assay type: biochemical
# run-parameters: averaged values; PRMT5-MEP50, 1.25 nM enzyme, 120 min; read-out: pIC50 Assay 1b (converted)
Mark Fulfilled only for IC50 values smaller than 200 nM; exact matches and larger values are Not fulfilled.

Check out these entries, answers already filled in.
CNc1nc2cc(CC[C@H]3C[C@@H](n4ccc5c(N)ncnc54)[C@H](O)[C@@H]3O)ccc2cc1F    Not fulfilled
Nc1ncnc2c1ccn2[C@@H]1C[C@H](CNc2ccc3cc(Br)cnc3c2)[C@@H](O)[C@H]1O    Fulfilled
CNc1ccc2ccc(OC[C@H]3O[C@@H](n4ccc5c(N)ncnc54)[C@H](O)[C@@H]3O)cc2n1    Fulfilled
CNc1ncnc2c1ccn2[C@@H]1C[C@H](CCc2ccc3ccc(NCC(F)(F)F)nc3c2)[C@@H](O)[C@H]1O    Fulfilled

Report whether reported IC50 is lower than 200 nM (strictly) for Nc1ncnc2c1ccn2[C@@H]1C[C@H](CCc2ccc3ccc(NC4CC4)nc3c2)[C@@H](O)[C@H]1O
Fulfilled

Another molecule to look at: O[C@@H]1[C@@H](CCc2ccc3ccc(NCC4CC4)nc3c2)C[C@@H](n2ccc3c(Cl)ncnc32)[C@@H]1O
Fulfilled

Another molecule to look at: O[C@@H]1[C@H](O)[C@@H](COc2ccc3ccc(NCc4ccc(Cl)cc4)nc3c2)O[C@H]1n1ccc2c(Cl)ncnc21
Fulfilled

Another molecule to look at: COc1cc2c(N)c(C#N)cnc2cc1OC[C@H]1O[C@@H](n2ccc3c(N)ncnc32)[C@H](O)[C@@H]1O
Not fulfilled

Another molecule to look at: Nc1ncnc2c1ccn2[C@@H]1O[C@H](CCc2ccc3cc(Br)cnc3c2)[C@@H](O)[C@H]1O
Fulfilled

Another molecule to look at: Nc1ncnc2c1ccn2[C@@H]1C[C@H](CCc2ccc3ccc(NCc4ccc(Cl)cc4)nc3c2)[C@@H](O)[C@H]1O
Fulfilled

Another molecule to look at: Nc1ncnc2c1ccn2[C@@H]1O[C@H](COc2ccc3c(Cl)c(Cl)cnc3c2)[C@@H](O)[C@H]1O
Not fulfilled

Another molecule to look at: N#Cc1cnc2cc(OC[C@H]3O[C@@H](n4ccc5c(N)ncnc54)[C@H](O)[C@@H]3O)ccc2c1Cl
Not fulfilled

Another molecule to look at: Cc1cc2c(N)ncnc2n1[C@@H]1O[C@H](COc2ccc3cc(Br)cnc3c2)[C@@H](O)[C@H]1O
Fulfilled

###

# measurement-target: PRMT5-MEP50 enzyme (Homo sapiens, UniProt O14744)
# Construct: One virus expresses full length human PRMT5 with Flag-tag at N-terminus; Flag (N); purchased Charles River (Argenta); host or cells: insect cells (Sf9), baculovirus co-infection
# measurement-notes: In vitro assay 1b: high throughput mass spectrometer assay of SAH formation, 1.25 nM enzyme, 120 min
# Assay type: biochemical
# run-parameters: averaged values; PRMT5-MEP50, 1.25 nM enzyme, 120 min; read-out: pIC50 Assay 1b (converted)
reported-metric: IC50 (nM)
Numbers only, in nM.

Illustrative cases are given below, each with its answer.
CNc1ncnc2c1ccn2[C@@H]1C[C@H](CCc2ccc3ccc(NC4CC4)nc3c2)[C@@H](O)[C@H]1O    0.631
CNc1ncnc2c1ccn2[C@@H]1O[C@H](COc2ccc3ccc(N)nc3c2)[C@@H](O)[C@H]1O    15.8
Nc1ncnn2c([C@@H]3O[C@H](CCc4ccc5cccnc5c4)[C@@H](O)[C@H]3O)ccc12    794

Look up IC50 for the entries below, preserving their order.
1. CNc1ncnc2c1ccn2[C@@H]1O[C@H](COc2ccc3cc(Br)c(N)nc3c2)[C@@H](O)[C@H]1O
2. CNc1ccc2ccc(OC[C@H]3O[C@@H](n4ccc5c(Cl)ncnc54)[C@H](O)[C@@H]3O)cc2n1

1: 3.98; 2: 50.1

Look up IC50 for the entries below, preserving their order.
1. Nc1ncnc2c1ccn2[C@@H]1O[C@H](COc2cccc3cnccc23)[C@@H](O)[C@H]1O
2. Nc1ncnc2c1c(F)cn2[C@@H]1O[C@H](COc2ccc3cccnc3c2)[C@@H](O)[C@H]1O
3. COc1ccc2ccc(OC[C@H]3O[C@@H](n4ccc5c(N)ncnc54)[C@H](O)[C@@H]3O)cc2n1
4. Nc1ncnc2c1ccn2[C@@H]1C[C@H](CCc2ccc3cc(Br)c(NCC4CC4)nc3c2)[C@@H](O)[C@H]1O
5. Nc1nc2cc(CC[C@H]3O[C@@H](n4ccc5c(N)ncnc54)[C@H](O)[C@@H]3O)ccc2cc1C(F)(F)F

1. 5010
2. 126
3. 3160
4. 794
5. 3.16

Look up IC50 for the entries below, preserving their order.
1. CNc1ccc2ccc(CC[C@H]3C[C@@H](n4ccc5cncnc54)[C@H](O)[C@@H]3O)cc2n1
2. Nc1ncnc2c1ccn2[C@@H]1C[C@H](CCc2ccc3cc(Cl)cnc3c2)[C@@H](O)[C@H]1O
3. Nc1ncnc2c1ccn2[C@@H]1O[C@H](COc2ccc3ccc(O)nc3c2)[C@@H](O)[C@H]1O
4. CNc1ncnc2c1ccn2[C@@H]1C[C@H](CCc2ccc3ccc(NCC4CC4)nc3c2)[C@@H](O)[C@H]1O
5. COc1ncnc2c1ccn2[C@@H]1O[C@H](CCc2ccc3cc(Cl)c(N)nc3c2)[C@@H](O)[C@H]1O
6. Nc1ncnc2c1ccn2[C@@H]1O[C@H](COc2ccc3cncnc3c2)[C@@H](O)[C@H]1O
7. CC(C)C(=O)O[C@@H]1[C@H](OC(=O)C(C)C)[C@@H](COc2ccc3cccnc3c2)O[C@H]1n1ccc2c(N)ncnc21

1: 10; 2: 20; 3: 316; 4: 0.316; 5: 39.8; 6: 1260; 7: 31600

Look up IC50 for the entries below, preserving their order.
1. CNC(=O)c1cnc2cc(OC[C@H]3O[C@@H](n4ccc5c(N)ncnc54)[C@H](O)[C@@H]3O)ccc2c1
2. Nc1ncnc2c1ccn2[C@@H]1O[C@H](COc2ccc3cc(C(F)(F)F)cnc3c2)[C@@H](O)[C@H]1O
3. CNc1ncnc2c1ccn2[C@@H]1C[C@H](COc2ccc3ccc(NCC4CC4)nc3c2)[C@@H](O)[C@H]1O
4. Cc1cnc2cc(OC[C@H]3O[C@@H](n4ccc5c(N)ncnc54)[C@H](O)[C@@H]3O)ccc2c1
5. COc1cc2c(Cl)c(C#N)cnc2cc1OC[C@H]1O[C@@H](n2ccc3c(N)ncnc32)[C@H](O)[C@@H]1O
6. Nc1ncnc2c1ccn2[C@@H]1O[C@H](COc2ccc3cc(Cl)cnc3c2Cl)[C@@H](O)[C@H]1O

[1000, 794, 6.31, 20, 39800, 794]

Cited source for all entries: patent US11318157B2
